# tgt: Cdk2(C177A, F80C) (Homo sapiens, UniProt P24941, C177A/F80C)
# Construct: poly-histidine; made in house; host or cells: E. coli
# assay_notes: Kinetic thiol consumption assay with Cdk2 mutant F80C, incl. kobs versus concentration (Kd, k2)
# Format: binding
# Set-up: key: Cdk2 rate constant divided by model-thiol rate constant
# settings: Cdk2 F80C, additional mutation C177A
# Experimental: Therefore the assay can be used to calculate both k2 and Kd by experimentally determining kobs at a suitable range of ligand candidate concentrations. Typically Kd and k2 would then be determined by fitting a hyperbolic curve to a plot of kobs against ligand candidate concentration (FIG. 9). […] Fluorescence measurements were normalized against a DMSO/thiol only control and plotted against time. […] Rate constants were calculated as described in the methodology section of Examples 1 and 2.
observation_type: Rate enhancement, Cdk2 F80C

Examples with answers:
[
  {
    "compound": "C=CC(=O)N1CCCC(N2C(=O)CC3(CCCC3)C2=O)C1 (stereo not shown)",
    "tgt": "Cdk2(C177A, F80C) (Homo sapiens, UniProt P24941, C177A/F80C)",
    "Rate enhancement, Cdk2 F80C": 0.4074
  },
  {
    "compound": "C=CC(=O)N(Cc1ccc2c(c1)CCO2)C1CCCC1",
    "tgt": "Cdk2(C177A, F80C) (Homo sapiens, UniProt P24941, C177A/F80C)",
    "Rate enhancement, Cdk2 F80C": 2.208
  },
  {
    "compound": "C=CC(=O)N1CCN(c2cc(N3CCOCC3)ncn2)CC1",
    "tgt": "Cdk2(C177A, F80C) (Homo sapiens, UniProt P24941, C177A/F80C)",
    "Rate enhancement, Cdk2 F80C": 0.3927
  }
]

1 = C=CC(=O)N1CC(Cc2ccccc2)C1
2 = C=CC(=O)NCCNC(=O)C1CCCN1S(=O)(=O)c1ccccc1 (stereo not shown)
Problem: Hi! Which is lower in terms of Rate enhancement, Cdk2 F80C, the first one 1 or the second one 2 ? Answer by stating the label of the chosen item.
Solution: 2

I = C=CC(=O)NC(C)c1cc(OC)c(OC)c(OC)c1 (stereo not shown)
II = C=CC(=O)NC1C2CC3CC(C2)CC1C3 (stereo not shown)
Problem: Hi! Which is lower in terms of Rate enhancement, Cdk2 F80C, the first one I or the second one II ? Answer by stating the label of the chosen item.
Solution: II

* * *

# tgt: Cdk2(C177A, F80C) (Homo sapiens, UniProt P24941, C177A/F80C)
# Construct: poly-histidine; made in house; host or cells: E. coli
# assay_notes: Kinetic thiol consumption assay with Cdk2 mutant F80C, incl. kobs versus concentration (Kd, k2)
# Format: binding
# Design: key: Cdk2 rate constant divided by model-thiol rate constant
# settings: Cdk2 F80C, additional mutation C177A
observation_type: Rate enhancement, Cdk2 F80C

Examples with answers:
[
  {
    "molecule": "C=CC(=O)Nc1ccccc1C#N",
    "Rate enhancement, Cdk2 F80C": 1.938
  },
  {
    "molecule": "C=CC(=O)N1CC2CC2C1 (stereo not drawn)",
    "Rate enhancement, Cdk2 F80C": 0.2496
  },
  {
    "molecule": "C=CC(=O)N1CCN(S(C)(=O)=O)CC1c1ccccc1 (stereo not drawn)",
    "Rate enhancement, Cdk2 F80C": 0.4705
  },
  {
    "molecule": "C=CC(=O)NC1CC2CC1C1CCCC21 (stereo not drawn)",
    "Rate enhancement, Cdk2 F80C": 0
  }
]

A = C=CC(=O)N1CC2CCN(Cc3ccccc3)C2C1 (stereo not drawn)
B = C=CC(=O)Nc1ccc(-c2ncccn2)cc1
Problem: # returns the entry with the larger Rate enhancement, Cdk2 F80C; inputs A and B Answer by stating the label of the chosen item.
Solution: B

1 = C=CC(=O)Nc1nc2ccccc2n1CCc1ccccn1
2 = C=CC(=O)N(Cc1ccco1)C12CC3CC(CC(C3)C1)C2
3 = C=CC(=O)Nc1cccc(-c2cc3ccccc3[nH]2)c1
4 = C=CC(=O)N1CC(CCN2CCCC2=O)c2ccccc21 (stereo not drawn)
Problem: Rank by Rate enhancement, Cdk2 F80C (largest to smallest). Form entry: labels listed in requested order.
Solution: 4, 3, 1, 2

1 = C=CC(=O)NC1C[C@@H](C(=C)C)CC=C1C (stereo partly drawn)
2 = C=CC(=O)N(Cc1ccco1)Cc1cc2cc(C)ccc2o1
Problem: Hi! Which is lower in terms of Rate enhancement, Cdk2 F80C, the first one 1 or the second one 2 ? Answer by stating the label of the chosen item.
Solution: 1
(1: 0.4555, 2: 1.581)

a = C#CCN1CCCN(C(=O)C=C)CC1
b = C=CC(=O)NCCN1CCOCC1
c = C=CC(=O)NC(Cc1ccccc1)C(O)CF (stereo not drawn)
Problem: Rank by Rate enhancement, Cdk2 F80C (largest to smallest). Form entry: labels listed in requested order.
Solution: a, c, b
(a: 0.4719, c: 0.2794, b: 0.189)
